# System Name: rat CCR2 (Rattus norvegicus (Rat))
# Sequence (O55193 whole entry): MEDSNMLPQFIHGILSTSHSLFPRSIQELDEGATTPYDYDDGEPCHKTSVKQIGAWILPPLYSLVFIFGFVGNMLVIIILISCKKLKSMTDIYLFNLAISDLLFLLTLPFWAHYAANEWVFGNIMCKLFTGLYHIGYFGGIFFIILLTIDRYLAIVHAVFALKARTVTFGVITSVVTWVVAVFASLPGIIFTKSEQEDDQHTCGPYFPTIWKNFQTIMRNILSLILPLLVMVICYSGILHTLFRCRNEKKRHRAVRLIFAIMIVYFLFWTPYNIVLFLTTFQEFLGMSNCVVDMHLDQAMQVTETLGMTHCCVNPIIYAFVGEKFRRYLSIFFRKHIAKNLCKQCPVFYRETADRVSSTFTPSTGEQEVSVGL
# Experiment Description: Inhibition of native agonist (rat MCP-1)-induced intracellular calcium release, calcium flux assay in CHO cells expressing rat CCR2 and Gα16
# Format: cell-based
# Reported Conditions: read-out: rCCR2 Kb
# Method: CHO cells expressing human CCR2B were generated as follows. cDNA for human CCR2B (cloned from human blood) was cloned into plasmid pcDNA3.1 (from Invitrogen). […] Briefly, cells were cultured overnight in a microtiter plate at 8000 per well. […] Calcium flux assays were performed on a FLIPR^Tetra instrument (Molecular Devices) by adding compound to the cells followed by addition of native agonist and measuring the change in fluorescence as a function of time. […]
Collected Kb values appear next to each entry.
Report the figure in nM without appending any unit label.

CO[C@@H]1COCC[C@@H]1N[C@@H]1C[C@H]2CCC[C@@]2(C(=O)N2C[C@@H]3C[C@H]2CN3c2ccc(Cl)c(Cl)c2)C1 ... 3
C[C@H]1COCC[C@@H]1N[C@@H]1C[C@H]2CCC[C@@]2(C(=O)N2C[C@@H]3C[C@H]2CN3c2cc(C(F)(F)F)ccn2)C1 ... 30
CO[C@@H]1COCC[C@@H]1N[C@@H]1C[C@H]2CCC[C@@]2(C(=O)N2C[C@@H]3C[C@H]2CN3c2cc(C(F)(F)F)cc(C(F)(F)F)c2)C1 ... 53
CO[C@@H]1COCC[C@@H]1N[C@@H]1C[C@H]2CCC[C@@]2(C(=O)N2C[C@@H]3C[C@H]2CN3c2nc(C(F)(F)F)cs2)C1 ... 4
CO[C@@H]1COCC[C@@H]1N(C)[C@@H]1C[C@H]2CCC[C@@]2(C(=O)N2C[C@@H]3C[C@H]2CN3c2cc(C#N)cc(C(F)(F)F)c2)C1 ... 55
CC[C@@H]1COCC[C@@H]1N[C@@H]1C[C@H]2CCC[C@@]2(C(=O)N2C[C@@H]3C[C@H]2CN3c2cc(C(F)(F)F)ccn2)C1 ... 8

Query: // Kb lookup, key: "CO[C@@H]1COCC[C@@H]1N(C)[C@@H]1C[C@H]2CCC[C@@]2(C(=O)N2C[C@@H]3C[C@H]2CN3c2cccc(Cl)c2C#N)C1"
Response: 515

Query: // Kb lookup, key: "CO[C@@H]1COCC[C@@H]1N(C)[C@@H]1C[C@H]2CCC[C@@]2(C(=O)N2C[C@@H]3C[C@H]2CN3c2ccc(Cl)c(C(F)(F)F)c2)C1"
Response: 29

Query: // Kb lookup, key: "CO[C@@H]1COCC[C@H]1N[C@@H]1C[C@H]2CCC[C@@]2(C(=O)N2C[C@@H]3C[C@H]2CN3c2cc(C(F)(F)F)ccn2)C1"
Response: 23

Query: // Kb lookup, key: "CO[C@@H]1COCC[C@@H]1N[C@@H]1C[C@H]2CCC[C@@]2(C(=O)N2C[C@@H]3C[C@H]2CN3c2cc(C)cc(C(F)(F)F)c2)C1"
Response: 116

Query: // Kb lookup, key: "CO[C@@H]1COCC[C@@H]1N[C@@H]1C[C@H]2CCC[C@@]2(C(=O)N2C[C@@H]3C[C@H]2CN3c2ccnc(C(F)(F)F)n2)C1"
Response: 19

Query: // Kb lookup, key: "CO[C@@H]1COCC[C@@H]1N[C@@H]1C[C@H]2CCC[C@@]2(C(=O)N2C[C@@H]3C[C@H]2CN3c2ncc(C(F)(F)F)cc2Cl)C1"
Response: 44

FYI, the data here is from patent US8906911B2.
